Just for reference, ChEMBL document CHEMBL1201862 is where these values come from.

System: NCI-H226
METHOD SUMMARY: NCI tumour cell line growth inhibition, 48 h
The source made the active and inactive calls. Cut-off read from the data, not from the text of the source: active = GI50 up to about 1.1 µM and inactive = higher.
Outcomes: label 1 = active, label 0 = inactive

{"COMPOUND": "CC(C)[Si](CC1=CCCCC12C(=O)N(COCC[Si](C)(C)C)c1ccccc12)(C(C)C)C(C)C (centres undefined)", "CLASS LABEL": "label 0"}
{"COMPOUND": "CC(C)=CCC[C@](C)(O)[C@H]1CC[C@]2(C)[C@@H]1[C@H](O)C[C@@H]1[C@@]3(C)CC[C@H](O[C@@H]4O[C@H](CO)[C@@H](O)[C@H](O)[C@H]4O)C(C)(C)[C@@H]3CC[C@]12C [GINSENOSIDE RH2]", "CLASS LABEL": "label 0"}
{"COMPOUND": "O=C(c1c(F)c(F)c(F)c(F)c1F)N1CCN(C(=O)c2c(F)c(F)c(F)c(F)c2F)C1=S", "CLASS LABEL": "label 0"}
{"COMPOUND": "O=C(CCc1ccccc1)ON1C(=S)C(c2ccccc2)(c2ccccc2)N=C1Sc1ccccc1", "CLASS LABEL": "label 0"}
{"COMPOUND": "CCn1c2ccccc2c2nnc(NCCCO)nc21", "CLASS LABEL": "label 0"}
{"COMPOUND": "CN(C)CCNC(=O)c1cccc2[nH]c(-c3ccncc3)nc12", "CLASS LABEL": "label 0"}
{"COMPOUND": "NC1CCC(N(CC(=O)O)CC(=O)O)C(N(CC(=O)O)CC(=O)O)C1 (centres undefined)", "CLASS LABEL": "label 0"}
{"COMPOUND": "O=C1C=CC(=O)c2c1ccc1c3ccccc3n(-c3cccc([N+](=O)[O-])c3)c21", "CLASS LABEL": "label 0"}
{"COMPOUND": "C(#CC1(Nc2ccccc2)CCN(Cc2ccccc2)CC1)C1(Nc2ccccc2)CCN(Cc2ccccc2)CC1", "CLASS LABEL": "label 0"}
{"COMPOUND": "OCCO[P+]1(OCCO)n2c3ccc2C(c2ccccc2)=C2C=CC(=N2)C(c2ccccc2)=c2ccc(n21)=C(c1ccccc1)C1=NC(=C3c2ccccc2)C=C1", "CLASS LABEL": "label 1"}
{"COMPOUND": "COc1ccc(CNc2nc3ccccc3nc2-c2cccs2)cc1OC", "CLASS LABEL": "label 0"}
{"COMPOUND": "CCCNC1=C2C[C@@H](C)C[C@@H](OC)[C@@H](OC(=O)CCCN)[C@H](C)/C=C(\\C)[C@@H](OC(N)=O)[C@H](OC)/C=C\\C=C(/C)C(=O)NC(=CC1=O)C2=O", "CLASS LABEL": "label 0"}
{"COMPOUND": "CS(=O)(=O)CSCSSCS(C)(=O)=O", "CLASS LABEL": "label 0"}
{"COMPOUND": "Cc1sc2nc3n(c(=O)c2c1C)N=C(c1ccccc1)CS3", "CLASS LABEL": "label 0"}
{"COMPOUND": "O=S(=O)(CC(O)C(Cl)(Cl)Cl)NNc1ccccc1 (centres undefined)", "CLASS LABEL": "label 0"}
{"COMPOUND": "CC(=O)OC1(C#N)CC2OC1C1N=NN(C(=O)OC(C)(C)C)C21 (centres undefined)", "CLASS LABEL": "label 0"}
{"COMPOUND": "N#CCCN(C(=O)Nc1ccc(NC(=O)N(CCC#N)c2ccccc2)cc1)c1ccccc1", "CLASS LABEL": "label 0"}
{"COMPOUND": "CCC1(C)NC(c2cnccn2)=NN1c1ccc(Cl)cc1 (centres undefined)", "CLASS LABEL": "label 0"}
{"COMPOUND": "COc1cccc2c1-c1nc(N)c3c(OC)cccc3c1C2=O", "CLASS LABEL": "label 0"}
{"COMPOUND": "CC(C)=CC[C@]12CCN(C)[C@H]1N(S(=O)(=O)c1ccccc1)c1ccccc12", "CLASS LABEL": "label 0"}
{"COMPOUND": "COC1=CC(=O)c2c(c(COC(C)=O)cn2C)C1=O", "CLASS LABEL": "label 1"}
{"COMPOUND": "CC(NC(=O)N(C)C)NC(=O)N(C)C", "CLASS LABEL": "label 0"}
{"COMPOUND": "Cc1nn2c(N)cc(=O)nc2nc1/C=C/c1ccc(N(C)C)cc1", "CLASS LABEL": "label 0"}
{"COMPOUND": "c1cc(-c2csc(-c3ccsc3)c2)cs1", "CLASS LABEL": "label 0"}
{"COMPOUND": "O=C1C=Cc2c(I)sc(I)c21", "CLASS LABEL": "label 0"}
{"COMPOUND": "Nc1ccc(/N=N/c2c(S(=O)(=O)O)cc3ccccc3c2S(=O)(=O)O)cc1", "CLASS LABEL": "label 0"}
{"COMPOUND": "Cc1cc(C)c(S(=O)(=O)N(CCCN)OCCCON(CCCN)S(=O)(=O)c2c(C)cc(C)cc2C)c(C)c1", "CLASS LABEL": "label 0"}
{"COMPOUND": "O=C(O)CCCCCCC[C@@H]1S[C@H]1CCCCCCO", "CLASS LABEL": "label 0"}
{"COMPOUND": "Cc1cc(-c2nc3cc(F)ccc3s2)ccc1N", "CLASS LABEL": "label 1"}
{"COMPOUND": "CN[C@H]1CC[C@]23C[C@]24CC[C@]2(C)[C@@H]([C@H](C)N(C)C)CC[C@@]2(C)[C@@H]4CC[C@H]3C1(C)C", "CLASS LABEL": "label 0"}
{"COMPOUND": "COc1c2ccoc2c(S(=O)(=O)Nc2ccc(Cl)cc2)c2oc(C)cc(=O)c12", "CLASS LABEL": "label 0"}
{"COMPOUND": "Cc1cn(CCCCCCOC(=O)NC(CCCNC(N)=O)C(=O)O)c(=O)[nH]c1=O (centres undefined)", "CLASS LABEL": "label 0"}
{"COMPOUND": "CC(C)OC(=O)/C=C/C(=O)O/C=C/[N+](=O)[O-]", "CLASS LABEL": "label 0"}
{"COMPOUND": "COC(=O)/C=C\\C1C(C(=O)OC)C2(C(=O)OC)CCC1(C(=O)OC)N2 (centres undefined)", "CLASS LABEL": "label 0"}
